I'd be grateful if you could share measured OD450 for these entries.
- MEASUREMENT_TARGET: T1, Peptide 8: Biotin-AEAAAKEAAAKEAAAKEAAAKAAA-Tyr-acid (N-terminal biotin; C-terminal acid; no PC)
- T1 construct: control peptide without PC
- T1 peptide: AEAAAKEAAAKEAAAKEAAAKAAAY
- TEST_METHOD_NOTES: scFv ELISA
Return type: number; implicit unit OD450.

Looking for the measured OD450 of PcOxP_DB01_A05 (scFv, V domains shown, scFv in periplasmic extract) VH: EVQLLESGGGLVQPGGSLRLSCAASGFTFSDYYMEWVRQAPGKGLEWVAASRNKANDYTTEYADSVKGRFTISRDNSKNTLYLQMNSLRAEDTAVYYCARDYYGNSYWYFDVWGQGTLVTVSS VL: DIVMTQSPDSLAVSLGERATINCTASESLYSSKHKVHYLAWYQQKPGQPPKLLIYGASNRYIGVPDRFSGSGSGTDFTLTISSLQAEDVAVYYCAQFYSYPLTFGGGTKVEIK , can you help?
0.04

Looking for the measured OD450 of PcOxP_DB01_F12 (scFv, V domains shown, scFv in periplasmic extract) VH: EVQLLESGGGLVQPGGSLRLSCAASGFTHSDFYMEWVRQAPGKGLEWVAASRNKANGYTTEYADSVKGRFTISRDNSKNTLYLQMNSLRAEDTAVYYCARDYYGSSYWYFDSWGQGTLVTVSS VL: DIVMTQSPDSLAVSLGERATINCTASESLYSSKHKVHYLAWYQQKPGQPPKLLIYGASNRYVGVPDRFSGSGSGTDFTLTISSLQAEDVAVYYCAQFYSYPLTFGGGTKVEIK , can you help?
0.05

Looking for the measured OD450 of PcOxP_DB01_A04 (scFv, V domains shown, scFv in periplasmic extract) VH: EVQLLESGGGLVQPGGSLRLSCAASGFTHSDFYMEWVRQAPGKGLEWVAASRNKANDYTTEYADSVKGRFTISRDNSKNTLYLQMNSLRAEDTAVYYCARDYYGSSYWYFDVWGQGTLVTVSS VL: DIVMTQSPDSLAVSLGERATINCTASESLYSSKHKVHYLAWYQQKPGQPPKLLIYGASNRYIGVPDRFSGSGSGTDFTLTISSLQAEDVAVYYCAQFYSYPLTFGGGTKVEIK , can you help?
0.04
